Tested on: SW620 (Dukes' Type C, Grade IV invasive colorectal adenocarcinoma)
protocol_summary: MTT cytotoxicity, SW620 cells
experimental_conditions: IS = CC50 PBMC ÷ CC50 SW620
# key: entry, value: Index of selectivity PBMC / SW620
Just the number, please.

Sample records with Index of selectivity PBMC / SW620:
C[N+](C)(CI)CCCC=C(c1cccc(C(F)(F)F)c1)c1cccc(C(F)(F)F)c1: 1.2
C[N+](C)(CCl)CCCC=C(c1cccc(C(F)(F)F)c1)c1cccc(C(F)(F)F)c1: 1.4
C[N+](C)(CCl)CCCCC=C(c1ccc(C(F)(F)F)cc1)c1ccc(C(F)(F)F)cc1: 2.7
C[N+](C)(CI)CCCCC=C(c1cccc(C(F)(F)F)c1)c1cccc(C(F)(F)F)c1: 1.9
C[N+](C)(C)CCCCC=C(c1ccc(C(F)(F)F)cc1)c1ccc(C(F)(F)F)cc1: 6.4
C[N+](C)(CI)CCCCC=C(c1ccc(F)cc1)c1ccc(F)cc1: 0.9
C[N+](C)(CI)CCCCC=C(c1ccc(C(F)(F)F)cc1)c1ccc(C(F)(F)F)cc1: 3.4
O=c1[nH]cc(F)c(=O)[nH]1 [Compound 5-FU, 5-fluorouracil, reference compound]: 1.3
C[N+](C)(CI)CCCC=C(c1ccc(F)cc1)c1ccc(F)cc1: 1.3
C[N+](C)(CCl)CCCC=C(c1ccc(C(F)(F)F)cc1)c1ccc(C(F)(F)F)cc1: 2.2

### Prompt Output measured Index of selectivity PBMC / SW620 for this item: C[N+](C)(CCl)CCCCC=C(c1ccc(F)cc1)c1ccc(F)cc1
### Response 0.6

### Prompt Output measured Index of selectivity PBMC / SW620 for this item: C[N+](C)(C)CCCC=C(c1cccc(C(F)(F)F)c1)c1cccc(C(F)(F)F)c1
### Response 1.5

### Prompt Give me measured Index of selectivity PBMC / SW620, please, for this molecule: C[N+](C)(CI)CCCC=C(c1ccc(C(F)(F)F)cc1)c1ccc(C(F)(F)F)cc1
### Response 1.0

----------
Tested on: SW620 (Dukes' Type C, Grade IV invasive colorectal adenocarcinoma)
protocol_summary: MTT cytotoxicity, SW620 cells
experimental_conditions: IS = CC50 MCRT ÷ CC50 SW620
quantity_name: Index of selectivity MCRT / SW620
// print number alone

C[N+](C)(CI)CCCC=C(c1cccc(C(F)(F)F)c1)c1cccc(C(F)(F)F)c1: 3.3

### Prompt Fetch value of Index of selectivity MCRT / SW620 on SW620 (Dukes' Type C, Grade IV invasive colorectal adenocarcinoma) for C[N+](C)(CI)CCCC=C(c1ccc(F)cc1)c1ccc(F)cc1 .
### Response 7.3

### Prompt Please look at C[N+](C)(CI)CCCC=C(c1ccc(C(F)(F)F)cc1)c1ccc(C(F)(F)F)cc1 and tell me its recorded Index of selectivity MCRT / SW620 on SW620 (Dukes' Type C, Grade IV invasive colorectal adenocarcinoma).
### Response 6.4

----------
protocol_summary: Ex vivo MTT cytotoxicity, healthy murine colorectal tissue
Assay type: cell-based, BALB/c mice
experimental_conditions: BALB/c, mouse, healthy murine colorectal tissue (MCRT) pieces, ex vivo, nontumoral control, MTT, 48 h, mean ± SD
Item-by-item account of log10 of CC50 at 48 h
Reminder: these figures are log10 of reported CC50 at 48 h, in µM before transformation.

### Prompt Check the records and state log10 of CC50 at 48 h for C[N+](C)(C)CCCC=C(c1cccc(C(F)(F)F)c1)c1cccc(C(F)(F)F)c1 [Compound 7]
### Response 2.09

### Prompt Specify log10 of CC50 at 48 h for O=c1[nH]cc(F)c(=O)[nH]1 [Compound 5-FU, 5-fluorouracil, reference compound] and stop.
### Response 2.98

### Prompt Write down log10 of CC50 at 48 h measured for item C[N+](C)(C)CCCC=C(c1cccc(F)c1)c1cccc(F)c1 [Compound 1]
### Response 2.33

### Prompt Given C[N+](C)(C)CCCC=C(c1ccc(C(F)(F)F)cc1)c1ccc(C(F)(F)F)cc1 [Compound 10] , respond with its log10 of CC50 at 48 h.
### Response 2.08

### Prompt State, in one line, measured log10 of CC50 at 48 h of C[N+](C)(CCl)CCCCC=C(c1ccc(C(F)(F)F)cc1)c1ccc(C(F)(F)F)cc1 [Compound 12]
### Response 2.05

### Prompt Specify reported log10 of CC50 at 48 h for the molecule shown: C[N+](C)(CI)CCCC=C(c1ccccc1)c1ccccc1 [Compound 15]
### Response 2.41

### Prompt Give me measured log10 of CC50 at 48 h, please, for this molecule: C[N+](C)(CI)CCCC=C(c1cccc(C(F)(F)F)c1)c1cccc(C(F)(F)F)c1 [Compound 6]
### Response 2.11

### Prompt Provide log10 of CC50 at 48 h value for the following molecule: C[N+](C)(C)CCCCC=C(c1ccc(C(F)(F)F)cc1)c1ccc(C(F)(F)F)cc1 [Compound 14]
### Response 2.62

### Prompt Using the record for C[N+](C)(CI)CCCCC=C(c1cccc(C(F)(F)F)c1)c1cccc(C(F)(F)F)c1 [Compound 11] , state its measured log10 of CC50 at 48 h.
### Response 1.97
